# GI50 listing for each entry below
System: T47D cells
ASSAY: Cellular growth inhibition assay for T47D cells, CellTiter-Glo
Type: cell-based, human
STUDY CONDITIONS: 72 hours treatment, CellTiter-Glo 2.0

Would you please look over these solved cases?
| COMPOUND | EXPERIMENTAL TARGET | TEST VALUE |
| --- | --- | --- |
| CCS(=O)(=O)c1ccc(Oc2ccc(CCC3CCN(c4ccc(C(=O)N[C@H]5CC[C@H](Oc6ccc(C#N)c(Cl)c6)CC5)nn4)CC3)c(C#N)c2)c(-c2cn(C)c(=O)c3[nH]ccc23)c1 | T47D cells | 500 to 1500 nM |
| Cn1cc(-c2cc(C(C)(C)O)ccc2Oc2c(F)cc(CCC3CCN(c4ccc(C(=O)N[C@H]5CC[C@H](Oc6ccc(C#N)c(Cl)c6)CC5)nn4)CC3)cc2F)c2cc[nH]c2c1=O | T47D cells | < 500 nM |

Query: Specify reported GI50 for the compound shown: Cn1cc(-c2cc(C(C)(C)O)ccc2Oc2ccc(C3CC(N4CCN(c5ccc(C(=O)N[C@H]6CC[C@H](Oc7ccc(C#N)c(Cl)c7)CC6)nn5)CC4)C3)cc2)c2cc[nH]c2c1=O (stereo partly drawn)
Response: < 500 nM

====

System: T47D cells
ASSAY: Cellular growth inhibition assay for T47D cells, CellTiter-Glo
Type: cell-based, human
STUDY CONDITIONS: Homo sapiens, 72 hours treatment, CellTiter-Glo 2.0
# GI50 listing for each entry below

Would you please look over these solved cases?
| COMPOUND | EXPERIMENTAL TARGET | TEST VALUE |
| --- | --- | --- |
| CCS(=O)(=O)c1ccc(Oc2ccc(CN3CCC4(CCN(c5ccc(C(=O)N[C@H]6CC[C@H](Oc7ccc(C#N)c(Cl)c7)CC6)nn5)C4)C3)c(F)c2)c(-c2cn(C)c(=O)c3[nH]ccc23)c1 (some centres unmarked) | T47D cells | < 500 nM |
| CCS(=O)(=O)Nc1ccc(Oc2cccc(CCC3CCN(c4ccc(C(=O)N[C@H]5CC[C@H](Oc6ccc(C#N)c(Cl)c6)CC5)nn4)CC3)c2F)c(-c2cn(C)c(=O)c3[nH]ccc23)c1 | T47D cells | < 500 nM |

Query: Specify reported GI50 for the compound shown: Cn1cc(-c2cc(C(C)(C)O)ccc2Oc2ccc(OCC3CCN(c4ccc(C(=O)NC5CCC(Oc6ccc(C#N)c(Cl)c6)CC5)nn4)CC3)cc2)ccc1=O (centres unmarked)
Response: 500 to 1500 nM

Query: Specify reported GI50 for the compound shown: Cn1cc(-c2cc(C(C)(C)O)ccc2Oc2ccc(CCCC3CCN(c4ccc(C(=O)N[C@H]5CC[C@H](Oc6ccc(C#N)c(Cl)c6)CC5)nn4)C3)cc2)c2cc[nH]c2c1=O (some centres unmarked)
Response: < 500 nM

Query: Specify reported GI50 for the compound shown: "CN(c1ccc(Oc2ccc(C(C)(C)O)cc2-c2cn(C)c(=O)c3[nH]ccc23)cc1)C1CN(c2ccc(C(=O)N[C@H]3CC[C@H](Oc4ccc(C#N)c(Cl)c4)CC3)nn2)C1"
Response: < 500 nM

====

# GI50 listing for each entry below
System: T47D cells
ASSAY: Cellular growth inhibition assay for T47D cells, CellTiter-Glo
Type: cell-based, human
STUDY CONDITIONS: Homo sapiens, 72 hours treatment, CellTiter-Glo 2.0

Would you please look over these solved cases?
| MOL SMILES | TEST VALUE |
| --- | --- |
| CCS(=O)(=O)Nc1ccc(Oc2cccc(OCCOC3CCN(c4ccc(C(=O)N[C@H]5CC[C@H](Oc6ccc(C#N)c(Cl)c6)CC5)nn4)CC3)c2)c(-c2cn(C)c(=O)c3[nH]ccc23)c1 | < 500 nM |
| CCS(=O)(=O)c1ccc(Oc2ccc(CC3CC4(C3)CN(c3ccc(C(=O)N[C@H]5CC[C@H](Oc6ccc(C#N)c(Cl)c6)CC5)nn3)C4)cc2)c(-c2cn(C)c(=O)c3[nH]ccc23)c1 | < 500 nM |

From here, focus on the item given below.
Query: Specify reported GI50 for the compound shown: "CN(C1CCN(c2ccc(C(=O)N[C@H]3CC[C@H](Oc4ccc(C#N)c(Cl)c4)CC3)nn2)CC1)C1CN(c2ccc(Oc3ccc(C(C)(C)O)cc3-c3cn(C)c(=O)c4[nH]ccc34)cc2)C1"
Response: < 500 nM

====

Recorded IC50 values (progesterone receptor ligand binding domain (LBD) (Homo sapiens (Human), UniProt P06401)) are given below.

Would you please look over these solved cases?
| COMPOUND | IC50 |
| --- | --- |
| Cn1cc(-c2cc(C(C)(C)O)ccc2Oc2c(F)cc(CCOC3CCN(c4ccc(C(=O)N[C@H]5CC[C@H](Oc6ccc(C#N)c(Cl)c6)CC5)nn4)CC3)cc2F)c2cc[nH]c2c1=O [I-109] | 0.05 to 0.5 µM |
| CCS(=O)(=O)c1ccc(Oc2cccc(CCCC3CCN(c4ccc(C(=O)N[C@H]5CC[C@H](Oc6ccc(C#N)c(Cl)c6)CC5)nn4)CC3)c2F)c(-c2cn(C)c(=O)c3[nH]ccc23)c1 [I-52] | 0.05 to 0.5 µM |
| CCS(=O)(=O)c1ccc(Oc2cccc(CCC3CCN(c4ccc(C(=O)N[C@H]5CC[C@H](Oc6ccc(C#N)c(Cl)c6)CC5)nn4)CC3)c2F)c(-c2cn(C)c(=O)c3[nH]ccc23)c1 [I-51] | 0.05 to 0.5 µM |
| Cn1cc(-c2cc(S(=O)(=O)CCCCOC3CCN(c4ccc(C(=O)NC5CCC(Oc6ccc(C#N)c(Cl)c6)CC5)nn4)CC3)ccc2Oc2ccc(F)cc2F)c2cc[nH]c2c1=O (centres unmarked) [I-92] | 0.05 to 0.5 µM |

From here, focus on the item given below.
Query: # return IC50 of CCS(=O)(=O)Nc1ccc(Oc2cccc(OCCOC3CCN(c4ccc(C(=O)N[C@H]5CC[C@H](Oc6ccc(C#N)c(Cl)c6)CC5)nn4)CC3)c2)c(-c2cn(C)c(=O)c3[nH]ccc23)c1 [I-1] (system: progesterone receptor ligand binding domain (LBD) (Homo sapiens (Human), UniProt P06401))
Sequence (P06401 679-913): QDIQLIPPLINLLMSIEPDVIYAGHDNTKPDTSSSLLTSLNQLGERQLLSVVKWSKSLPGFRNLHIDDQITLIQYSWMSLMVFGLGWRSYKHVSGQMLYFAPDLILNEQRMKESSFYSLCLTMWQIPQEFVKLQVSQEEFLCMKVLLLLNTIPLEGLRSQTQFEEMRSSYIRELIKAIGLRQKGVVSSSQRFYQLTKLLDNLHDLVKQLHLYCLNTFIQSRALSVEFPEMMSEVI
Response: 0.5 to 2.5 µM

====

Test system: T47D cells
ASSAY: Cellular growth inhibition assay for T47D cells, CellTiter-Glo
Assay type: cell-based, human
STUDY CONDITIONS: Homo sapiens, 72 hours treatment, CellTiter-Glo 2.0
PROPERTY LABEL: GI50

Would you please look over these solved cases?
| COMPOUND | GI50 |
| --- | --- |
| CCS(=O)(=O)c1ccc(Oc2ccc(CC3CN(c4ccc(C(=O)N[C@H]5CC[C@H](Oc6ccc(C#N)c(Cl)c6)CC5)nn4)C3)cc2)c(-c2cn(C)c(=O)c3[nH]ccc23)c1 | < 500 nM |
| CCS(=O)(=O)c1ccc(Oc2ccc(CC3CC4(CCN(c5ccc(C(=O)N[C@H]6CC[C@H](Oc7ccc(C#N)c(Cl)c7)CC6)nn5)CC4)C3)cc2)c(-c2cn(C)c(=O)c3[nH]ccc23)c1 | < 500 nM |
| CCS(=O)(=O)c1ccc(Oc2ccc(CN3CC4(C3)CN(c3ccc(C(=O)N[C@H]5CC[C@H](Oc6ccc(C#N)c(Cl)c6)CC5)nn3)C4)c(F)c2)c(-c2cn(C)c(=O)c3[nH]ccc23)c1 | < 500 nM |

From here, focus on the item given below.
Query: Specify reported GI50 for the compound shown: Cn1cc(-c2cc(C3CCS(=O)(=O)CC3)ccc2Oc2ccc(CCC3CCN(c4ccc(C(=O)NC5CCC(Oc6ccc(C#N)c(Cl)c6)CC5)nn4)CC3)cc2)c2cc[nH]c2c1=O (stereo not shown)
Response: 500 to 1500 nM

====

EXPERIMENTAL TARGET: BRD4-BD2 (Homo sapiens (Human), UniProt O60885)
ASSAY: bromoKdELECT assay for binding affinity to BRD4-BD2
STUDY CONDITIONS: 11-point 3-fold dilution
Protocol: Compounds were tested using a bromoKdELECT assay. T7 phage strains displaying bromodomains were grown in parallel in 24-well blocks in an E. coli host derived from the BL21 strain. […] Kds were determined using an 11-point 3-fold compound dilution series with one DMSO control point. […] The bromodomain concentration in the eluates was measured by qPCR.
pKd: −log10 of the molar value.
# pKd listing for each entry below

Would you please look over these solved cases?
| MOL SMILES | pKd |
| --- | --- |
| CCS(=O)(=O)Nc1ccc(Oc2ccc(CCOC3CCN(c4ccc(C(=O)N[C@H]5CC[C@H](Oc6ccc(C#N)c(Cl)c6)CC5)nn4)CC3)cc2)c(-c2cn(C)c(=O)c3[nH]ccc23)c1 | > 7.30 |
| CCS(=O)(=O)c1ccc(Oc2cccc(CCN3CCN(c4ccc(C(=O)N[C@H]5CC[C@H](Oc6ccc(C#N)c(Cl)c6)CC5)nn4)CC3)c2F)c(-c2cn(C)c(=O)c3[nH]ccc23)c1 | > 7.30 |
| CCS(=O)(=O)c1ccc(Oc2ccc(COC3CCN(c4ccc(C(=O)N[C@H]5CC[C@H](Oc6ccc(C#N)c(Cl)c6)CC5)nn4)CC3)c(F)c2F)c(-c2cn(C)c(=O)c3[nH]ccc23)c1 | < 5.60 |

From here, focus on the item given below.
Query: Specify reported pKd for the compound shown: "Cn1cc(-c2cc(C(C)(C)O)ccc2Oc2c(F)cc(CCOC3CCN(c4ccc(C(=O)N[C@H]5CC[C@H](Oc6ccc(C#N)c(Cl)c6)CC5)nn4)CC3)cc2F)c2cc[nH]c2c1=O"
Response: 5.60 to 6.30
